# measurementTarget: FLT3 (Homo sapiens)
# Construct: purchased Eurofins
# Sequence (P36888 27-993): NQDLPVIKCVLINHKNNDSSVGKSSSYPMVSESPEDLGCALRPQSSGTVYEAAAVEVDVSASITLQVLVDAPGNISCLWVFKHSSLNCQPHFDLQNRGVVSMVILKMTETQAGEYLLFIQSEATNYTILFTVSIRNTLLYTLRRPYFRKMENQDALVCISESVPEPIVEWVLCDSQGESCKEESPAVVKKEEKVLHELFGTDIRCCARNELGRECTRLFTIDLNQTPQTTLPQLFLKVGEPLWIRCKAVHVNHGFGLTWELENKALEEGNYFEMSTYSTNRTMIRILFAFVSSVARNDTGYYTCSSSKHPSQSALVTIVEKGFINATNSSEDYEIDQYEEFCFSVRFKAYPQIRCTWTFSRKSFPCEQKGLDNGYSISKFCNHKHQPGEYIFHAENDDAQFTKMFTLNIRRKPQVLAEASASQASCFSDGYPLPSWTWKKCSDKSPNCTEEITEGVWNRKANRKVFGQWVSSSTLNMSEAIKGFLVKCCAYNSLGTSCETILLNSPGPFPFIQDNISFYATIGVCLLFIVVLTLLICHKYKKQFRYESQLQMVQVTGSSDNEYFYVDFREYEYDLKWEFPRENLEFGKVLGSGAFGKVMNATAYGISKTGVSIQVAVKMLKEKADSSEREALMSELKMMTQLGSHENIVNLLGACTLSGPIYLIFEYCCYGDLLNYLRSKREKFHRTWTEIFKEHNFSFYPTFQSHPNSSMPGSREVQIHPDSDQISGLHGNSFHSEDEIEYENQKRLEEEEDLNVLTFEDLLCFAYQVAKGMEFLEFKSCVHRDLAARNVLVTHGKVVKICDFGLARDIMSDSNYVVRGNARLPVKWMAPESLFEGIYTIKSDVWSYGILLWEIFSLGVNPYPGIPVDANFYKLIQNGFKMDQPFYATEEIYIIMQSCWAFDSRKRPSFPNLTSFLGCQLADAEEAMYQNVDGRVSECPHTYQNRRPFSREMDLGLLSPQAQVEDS
# measurementNotes: In vitro kinase activity experiment, FLT3
# Assay type: biochemical
# condition: 40 min; inhibition rate of enzyme at 500 nM; measured by Eurofins; read-out: Kinase activity @ 500 nM (%) FLT3
Known inhibition at 0.5 µM of a selection of compounds
Report the figure along with its unit, number first.

Past entries and their recorded results:
Requested read-out: inhibition at 0.5 µM. Entry: Cc1cnc(Nc2ccc(N3CCC[C@@H](N(C)C(=O)CCC#N)C3)c(F)c2)nc1-c1cnn(C(C)C)c1 [CLJ-65] 89%

For the compound shown here, Cc1cnc(Nc2ccc(N3CCC(N(C)CCN4CCOCC4)CC3)c(F)c2)nc1-c1cnn(C(C)C)c1 [CLJ-54] , give the reported inhibition at 0.5 µM. 23%

Could you share which inhibition at 0.5 µM value was measured for Cc1c(-c2nc(Nc3ccc(N4CCN(C)CC4)c(F)c3)ncc2F)cnn1C(C)C [CLJ-35] ? 91%

Others:
Please look up its inhibition at 0.5 µM: CN(C)C1CCN(c2ccc(Nc3ncc(F)c(-c4cnn(C5CCCC5)c4)n3)cc2F)CC1 [CLJ-18] 93%

Given the entry CC(C)n1cc(-c2nc(Nc3ccc(N4CCCC4)c(F)c3)ncc2F)cn1 [CLJ-27] , report its measured inhibition at 0.5 µM. 24%

Given the entry CCCN(C)C1CCN(c2ccc(Nc3ncc(C)c(-c4cnn(C(C)C)c4)n3)cc2F)CC1 [CLJ-49] , report its measured inhibition at 0.5 µM. 91%

Please give the measured inhibition at 0.5 µM for this compound: Cc1nn(C(C)C)cc1-c1nc(Nc2ccc(N3CCN(C)CC3)c(F)c2)ncc1F [CLJ-34] 95%

// returns reported inhibition at 0.5 µM for input Cc1cnc(Nc2ccc(N3CCC(N(C)CCO)CC3)c(F)c2)nc1-c1cn(C(C)C)nc1S(C)(=O)=O [CLJ-91] 97%
